# test.system: T1, recombinant His-tagged human TIGIT-ECD protein (human, UniProt Q495A1 22-141)
# T1 construct: extracellular domain; The ELISA text only says His-tagged human TIGIT; also called His-tagged TIGIT; human TIGIT protein; not shown: His tag
# T1 sequence (looked up): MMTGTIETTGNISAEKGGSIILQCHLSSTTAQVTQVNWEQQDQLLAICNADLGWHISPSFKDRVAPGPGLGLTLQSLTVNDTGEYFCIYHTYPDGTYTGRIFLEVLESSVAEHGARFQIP
# protocol.details: SPR affinity ranking (Biacore T200)
endpoint: koff (s⁻¹)

{"binder": "101E1HM-4 (antibody, V domains shown) VH: QVQLQESGPGLVKPSQTLSLTCTVSGYSITDDYAWNWIRQPPGKGLEWMGYISYSGHTRYNPSLKSRVTISRDTSKNQFSLKLSSVTAADTAVYYCARKYYGSWFPDWGQGTLVTVSS VL: DIQMTQSPSSLSASVGDRVTITCKASQDVFTAVAWYQQKPGKAPKLLIYSASYRMTGVPSRFSGSGSGTDFTFTISSLQPEDFATYYCQQSYSTPWTFGQGTRLEIK", "endpoint": "koff", "unit.abbrev": "s⁻¹", "reading": 0.00439}
